# IC50, half-maximal neutralization of viral infectivity (rVSV-GP) per record follows
- experimental target: T1, EBOV GP on rVSV particles (Ebola virus (EBOV), UniProt Q05320 33-676)
- T1 sequence: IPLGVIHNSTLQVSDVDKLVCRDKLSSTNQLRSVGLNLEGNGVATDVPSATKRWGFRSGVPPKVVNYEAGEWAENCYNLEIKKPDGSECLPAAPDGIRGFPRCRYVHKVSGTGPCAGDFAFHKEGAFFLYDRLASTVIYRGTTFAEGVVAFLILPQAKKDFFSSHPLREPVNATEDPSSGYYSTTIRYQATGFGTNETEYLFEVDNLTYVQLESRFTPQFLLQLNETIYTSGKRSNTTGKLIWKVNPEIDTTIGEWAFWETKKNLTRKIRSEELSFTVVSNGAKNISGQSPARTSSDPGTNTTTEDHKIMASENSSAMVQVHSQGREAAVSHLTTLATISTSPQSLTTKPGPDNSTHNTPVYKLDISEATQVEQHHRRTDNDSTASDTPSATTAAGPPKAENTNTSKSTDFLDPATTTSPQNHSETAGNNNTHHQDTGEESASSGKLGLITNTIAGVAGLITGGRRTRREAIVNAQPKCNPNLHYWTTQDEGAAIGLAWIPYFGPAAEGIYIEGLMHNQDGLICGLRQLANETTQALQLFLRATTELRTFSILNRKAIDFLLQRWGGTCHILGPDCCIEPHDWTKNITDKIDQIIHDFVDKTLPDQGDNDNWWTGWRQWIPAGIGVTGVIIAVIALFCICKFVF
- test: cell-based or functional assay
Respond numerically; units are nM and should not be typed.

binder="PE-87 D110A (antibody, V domains shown) VH: QVQLVQSGVTLVQPGGSLRVSCAASGFTFSSYAMSWVRQAPGKGLEWVSAISGLGGSTYYADSVKGRFTISRDNSKNTLYLQMNSLRAEDTAVYYCAKDHRVWAAGYHFAYWGQGALVTVSS VL: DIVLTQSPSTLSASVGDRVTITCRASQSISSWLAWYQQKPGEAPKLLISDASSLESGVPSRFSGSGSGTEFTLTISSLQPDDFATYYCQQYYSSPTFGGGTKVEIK" numeric_value=2
binder="PE-87 H100A (antibody, V domains shown) VH: QVQLVQSGVTLVQPGGSLRVSCAASGFTFSSYAMSWVRQAPGKGLEWVSAISGLGGSTYYADSVKGRFTISRDNSKNTLYLQMNSLRAEDTAVYYCAKDARVWAAGYHFDYWGQGALVTVSS VL: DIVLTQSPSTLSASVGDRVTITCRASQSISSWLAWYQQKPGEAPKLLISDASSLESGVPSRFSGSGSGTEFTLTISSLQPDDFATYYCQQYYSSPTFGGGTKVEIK" numeric_value=1
binder="PE-87 Y111A (antibody, V domains shown) VH: QVQLVQSGVTLVQPGGSLRVSCAASGFTFSSYAMSWVRQAPGKGLEWVSAISGLGGSTYYADSVKGRFTISRDNSKNTLYLQMNSLRAEDTAVYYCAKDHRVWAAGYHFDAWGQGALVTVSS VL: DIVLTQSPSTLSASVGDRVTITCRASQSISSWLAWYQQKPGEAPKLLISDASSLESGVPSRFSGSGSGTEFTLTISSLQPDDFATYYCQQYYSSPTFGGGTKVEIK" numeric_value=0.8
binder="PE-87 F109A (antibody, V domains shown) VH: QVQLVQSGVTLVQPGGSLRVSCAASGFTFSSYAMSWVRQAPGKGLEWVSAISGLGGSTYYADSVKGRFTISRDNSKNTLYLQMNSLRAEDTAVYYCAKDHRVWAAGYHADYWGQGALVTVSS VL: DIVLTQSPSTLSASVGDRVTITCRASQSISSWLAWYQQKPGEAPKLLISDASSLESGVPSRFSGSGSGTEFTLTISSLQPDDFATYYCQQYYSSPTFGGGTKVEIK" numeric_value=4.2
binder="PE-87 V102A (antibody, V domains shown) VH: QVQLVQSGVTLVQPGGSLRVSCAASGFTFSSYAMSWVRQAPGKGLEWVSAISGLGGSTYYADSVKGRFTISRDNSKNTLYLQMNSLRAEDTAVYYCAKDHRAWAAGYHFDYWGQGALVTVSS VL: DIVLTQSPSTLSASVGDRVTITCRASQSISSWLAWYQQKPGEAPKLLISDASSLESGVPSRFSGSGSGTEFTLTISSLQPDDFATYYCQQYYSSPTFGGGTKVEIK" numeric_value=0.6

With those in mind, consider the next binder.
Provide measured IC50, half-maximal neutralization of viral infectivity (rVSV-GP) value, entry: PE-87 H108A (antibody, V domains shown) VH: QVQLVQSGVTLVQPGGSLRVSCAASGFTFSSYAMSWVRQAPGKGLEWVSAISGLGGSTYYADSVKGRFTISRDNSKNTLYLQMNSLRAEDTAVYYCAKDHRVWAAGYAFDYWGQGALVTVSS VL: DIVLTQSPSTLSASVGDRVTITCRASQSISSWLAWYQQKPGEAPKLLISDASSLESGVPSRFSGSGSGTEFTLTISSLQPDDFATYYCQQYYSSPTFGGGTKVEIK
3.2

Reference source: patent EP3583122A1
